src = patent US12723255B2

Assay: enzyme activity assay at 23° C. with purified enzyme
Type: biochemical
Conditions: not robust enough to quantify
Description: The enzyme activity of MON-HT protein variants with triclopyr, fluroxypyr, MCPA, MCPB, mecoprop, as substrates was determined using the enzyme activity assay conducted at 23° C. with purified enzyme. The activity was recorded as the maximum activity as a percentage of the wild-type RdpA enzyme's activity, which was set at 100%. […] The enzymatic activity with mecoprop as a substrate was reduced for each of the MON-HT1, MON-HT13, MON-HT15, and MON-HT17 variants compared to the wild-type RdpA enzyme. […]
observable: activity with triclopyr as the substrate

• MON-HT13: engineered oxygenase protein, amino acid sequence SEQ ID NO:47 (protein) MHAALTPLTNKYRFIDVQPLTGVLGAEITGVDLREPLDDSTWNEILDAFHTYQVIYFPGQAITNEQHIAFSRRFGPVDPVPILKSIEGYPEVQMIRREANESSRYIGDDWHADSTFLDAPPAAVVMRAIEVPEYGGDTGFLSMYSAWETLSPTMQATIEGLNVVHSATKVFGSLYQATNWRFSGTSVKVMDVDAGDRETVHPLVVTHPVTGRRALYCNQVYCQKIQGMTDAESKSLLQFLYEHATQFDFTCRVRWKKDQVLVWDNLCTMHRAVPDYAGKFRYLTRTTVAGDKPSR = detectable activity
• MON-HT17: engineered oxygenase protein, amino acid sequence SEQ ID NO:51 (protein) MHAALTPLTNKYRFIDVQPLTGVLGAEITGVDLREPLDDSTWNEILDAFHTYQVIYFPGQAITNEQHIAFSRRFGPVDPVPILKSIEGYPEVQMIRREANESSRYIGDDWHADSTFLDAPPAAVVMRAIEVPEYGGDTGFLSMYSAWETLSPTMQATIEGLNVVHSATKVFGSLYQATNWRFSNTSVKVMDVDAGDRETVHPLVVTHPVTGRRALYCNQVYCQKIQGMTDAESKSLLQFLYEHATQFDFTCRVRWKKDQVLVWDNLCTMHRAVPDYAGKFRYLTRTTVAGDKPSR = detectable activity
• MON-HT1: engineered oxygenase protein, amino acid sequence SEQ ID NO:14 (protein) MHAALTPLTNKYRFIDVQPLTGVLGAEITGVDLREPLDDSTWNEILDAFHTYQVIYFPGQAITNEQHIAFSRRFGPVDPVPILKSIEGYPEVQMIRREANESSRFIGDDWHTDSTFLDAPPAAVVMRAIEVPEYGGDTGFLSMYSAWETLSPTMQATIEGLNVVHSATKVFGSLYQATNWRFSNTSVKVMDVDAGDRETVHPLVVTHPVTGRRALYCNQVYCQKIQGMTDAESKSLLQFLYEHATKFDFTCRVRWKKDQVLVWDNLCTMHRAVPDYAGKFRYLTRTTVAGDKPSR = detectable activity
